Source listed as BindingDB's records for doi:10.1111/cbdd.12116.

# pKi per entry for Sodium-dependent serotonin transporter (Rattus norvegicus, UniProt P31652)
pKi: −log10 of the molar value.
measure: pKi

| given.smiles | test.target | value |
| --- | --- | --- |
| CCCCCCCCCCN1CCN(c2ccc3cc([N+](=O)[O-])ccc3n2)CC1 | Sodium-dependent serotonin transporter (Rattus norvegicus, UniProt P31652) | 8.35 |
| CCN1CCN(c2ccc3cc([N+](=O)[O-])ccc3n2)CC1 | Sodium-dependent serotonin transporter (Rattus norvegicus, UniProt P31652) | 7.06 |
| CCCCCCCCCCCCN1CCN(c2ccc3cc([N+](=O)[O-])ccc3n2)CC1 | Sodium-dependent serotonin transporter (Rattus norvegicus, UniProt P31652) | 7.79 |
| CCCCCCCCCCCN1CCN(c2ccc3cc([N+](=O)[O-])ccc3n2)CC1 | Sodium-dependent serotonin transporter (Rattus norvegicus, UniProt P31652) | 7.90 |
| CCCN1CCN(c2ccc3cc([N+](=O)[O-])ccc3n2)CC1 | Sodium-dependent serotonin transporter (Rattus norvegicus, UniProt P31652) | 6.30 |
| CCCCN1CCN(c2ccc3cc([N+](=O)[O-])ccc3n2)CC1 | Sodium-dependent serotonin transporter (Rattus norvegicus, UniProt P31652) | 7.62 |
| CCCCCCN1CCN(c2ccc3cc([N+](=O)[O-])ccc3n2)CC1 | Sodium-dependent serotonin transporter (Rattus norvegicus, UniProt P31652) | 7.14 |
| CCCCCCCCN1CCN(c2ccc3cc([N+](=O)[O-])ccc3n2)CC1 | Sodium-dependent serotonin transporter (Rattus norvegicus, UniProt P31652) | 7.68 |
| CN1CCN(c2ccc3cc([N+](=O)[O-])ccc3n2)CC1 | Sodium-dependent serotonin transporter (Rattus norvegicus, UniProt P31652) | 5.89 |
| CCCCCCCN1CCN(c2ccc3cc([N+](=O)[O-])ccc3n2)CC1 | Sodium-dependent serotonin transporter (Rattus norvegicus, UniProt P31652) | 7.27 |
